# assay_system: human TLR9 (hTLR9) (Homo sapiens (Human))
# Sequence (Q9NR96 26-1032): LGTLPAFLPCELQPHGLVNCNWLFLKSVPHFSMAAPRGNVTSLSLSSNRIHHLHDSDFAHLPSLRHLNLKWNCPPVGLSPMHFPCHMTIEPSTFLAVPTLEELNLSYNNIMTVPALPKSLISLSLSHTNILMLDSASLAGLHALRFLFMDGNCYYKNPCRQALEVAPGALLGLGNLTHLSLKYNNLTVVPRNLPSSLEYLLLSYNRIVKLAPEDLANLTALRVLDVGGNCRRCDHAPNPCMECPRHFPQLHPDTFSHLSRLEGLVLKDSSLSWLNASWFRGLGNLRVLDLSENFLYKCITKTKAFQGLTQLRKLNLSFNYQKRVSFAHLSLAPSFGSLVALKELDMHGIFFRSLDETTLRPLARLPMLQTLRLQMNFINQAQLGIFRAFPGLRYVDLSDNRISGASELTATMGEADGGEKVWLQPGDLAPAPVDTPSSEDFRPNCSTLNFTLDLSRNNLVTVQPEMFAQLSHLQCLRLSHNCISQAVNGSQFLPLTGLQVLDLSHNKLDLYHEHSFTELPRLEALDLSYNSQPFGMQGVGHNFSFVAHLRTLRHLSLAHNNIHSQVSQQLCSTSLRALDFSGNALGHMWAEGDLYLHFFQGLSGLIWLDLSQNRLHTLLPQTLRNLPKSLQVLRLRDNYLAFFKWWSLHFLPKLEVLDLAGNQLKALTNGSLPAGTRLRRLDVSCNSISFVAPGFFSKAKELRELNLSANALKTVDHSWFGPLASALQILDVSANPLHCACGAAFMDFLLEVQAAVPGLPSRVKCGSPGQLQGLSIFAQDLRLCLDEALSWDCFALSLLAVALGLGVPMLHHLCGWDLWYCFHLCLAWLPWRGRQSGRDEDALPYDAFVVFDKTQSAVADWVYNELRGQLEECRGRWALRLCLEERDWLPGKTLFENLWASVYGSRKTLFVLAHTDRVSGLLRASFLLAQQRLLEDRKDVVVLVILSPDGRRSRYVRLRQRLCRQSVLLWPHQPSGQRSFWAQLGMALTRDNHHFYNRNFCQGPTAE
# test_name: TLR9 antagonist assay in HEK-Blue-hTLR9 cells (NF-kB/AP-1 SEAP reporter)
# condition: hTLR9 agonist (such as ODN 2006, 1 uM), SEAP readout at 620 nm, read-out: hTLR9 antagonism IC50
metric_name: IC50 (µM)
Quick reminder: number only, in µM, skip the unit.

IC50 on human TLR9 (hTLR9) (Homo sapiens (Human)) for c1ccc(-c2nc(NCCN3CCOCC3)c3nc(NCCN4CCOCC4)c(N4CCCC4)nc3n2)cc1 [Example 66] is 0.181
